measured.on: UniProtKB Q02156
Sequence (Q02156 1-737): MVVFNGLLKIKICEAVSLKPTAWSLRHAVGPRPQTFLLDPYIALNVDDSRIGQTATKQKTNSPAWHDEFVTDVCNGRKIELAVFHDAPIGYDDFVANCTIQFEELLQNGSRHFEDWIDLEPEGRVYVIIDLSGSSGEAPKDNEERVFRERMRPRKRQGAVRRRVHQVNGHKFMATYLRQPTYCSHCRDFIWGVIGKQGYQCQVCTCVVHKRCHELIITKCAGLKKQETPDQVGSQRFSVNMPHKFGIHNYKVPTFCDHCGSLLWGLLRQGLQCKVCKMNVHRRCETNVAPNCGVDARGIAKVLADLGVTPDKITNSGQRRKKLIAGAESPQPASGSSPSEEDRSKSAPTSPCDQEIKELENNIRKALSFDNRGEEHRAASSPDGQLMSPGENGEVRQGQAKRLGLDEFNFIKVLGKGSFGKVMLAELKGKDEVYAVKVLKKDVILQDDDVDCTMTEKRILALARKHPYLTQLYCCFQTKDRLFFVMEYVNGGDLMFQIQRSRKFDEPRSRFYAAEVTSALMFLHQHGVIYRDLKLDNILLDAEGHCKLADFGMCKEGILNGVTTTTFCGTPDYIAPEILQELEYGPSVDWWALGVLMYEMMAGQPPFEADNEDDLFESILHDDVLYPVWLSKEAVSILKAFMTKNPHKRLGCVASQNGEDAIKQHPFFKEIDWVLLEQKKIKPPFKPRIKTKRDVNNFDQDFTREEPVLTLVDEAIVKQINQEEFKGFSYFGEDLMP
method: Cell-based assay for PKCε modulation of GABAA receptors (γ2 S327 phosphorylation, ELISA format)
condition.label: HEK293 cell line expressing α1β2γ2 GABAA receptors and over-expressing PKCε; anti-γ2S(P)327 ELISA
property: pIC50
Give bare numbers, as −log10 of the molar value.

[ask] Identify the reported pIC50 for the following entry. NC(CNC(=O)C1(c2ccc(Cl)cc2)CC1)[C@H]1CC[C@H](C(=O)Nc2ccncc2)CC1 (relative stereo)
[reply] 8.05

====

Please respond with reported pIC50 for every item in the list.
measured.on: UniProtKB Q02156
method: Primary PKCε phosphotransferase assay
Type: biochemical
Design: FLAG; made in house; host or cells: COS-7 cells
condition.label: log of molar IC50
Give bare numbers, as −log10 of the molar value.

[ask] Identify pIC50 associated with the compound NC(C(=O)NCC1(c2ccc(Cl)cc2)CC1)[C@H]1CC[C@H](C(=O)Nc2ccncc2)CC1 (some centres unmarked)
[reply] 5.77

Next:
[ask] Consider the compound NC(CNC(=O)C1(c2ccc(Cl)cc2)CC1)[C@H]1CC[C@H](C(=O)Nc2ccncc2)CC1 (relative stereo) and give its recorded pIC50.
[reply] 6.88

====

measured.on: PKCε (Homo sapiens, UniProt Q02156)
method: Inhibition of PKCε (Example 4)
Format: biochemical
condition.label: n=3; read-out: PKCε Ki
property: pKi
Give bare numbers, as −log10 of the molar value.

[ask] Quickly give me recorded pKi for NC(CNC(=O)C1(c2ccc(Cl)cc2)CC1)[C@H]1CC[C@H](C(=O)Nc2ccncc2)CC1 (relative stereo) [Compound 1]
[reply] 7.77

====

measured.on: PKCε (Homo sapiens, UniProt Q02156)
Sequence (Q02156 1-737): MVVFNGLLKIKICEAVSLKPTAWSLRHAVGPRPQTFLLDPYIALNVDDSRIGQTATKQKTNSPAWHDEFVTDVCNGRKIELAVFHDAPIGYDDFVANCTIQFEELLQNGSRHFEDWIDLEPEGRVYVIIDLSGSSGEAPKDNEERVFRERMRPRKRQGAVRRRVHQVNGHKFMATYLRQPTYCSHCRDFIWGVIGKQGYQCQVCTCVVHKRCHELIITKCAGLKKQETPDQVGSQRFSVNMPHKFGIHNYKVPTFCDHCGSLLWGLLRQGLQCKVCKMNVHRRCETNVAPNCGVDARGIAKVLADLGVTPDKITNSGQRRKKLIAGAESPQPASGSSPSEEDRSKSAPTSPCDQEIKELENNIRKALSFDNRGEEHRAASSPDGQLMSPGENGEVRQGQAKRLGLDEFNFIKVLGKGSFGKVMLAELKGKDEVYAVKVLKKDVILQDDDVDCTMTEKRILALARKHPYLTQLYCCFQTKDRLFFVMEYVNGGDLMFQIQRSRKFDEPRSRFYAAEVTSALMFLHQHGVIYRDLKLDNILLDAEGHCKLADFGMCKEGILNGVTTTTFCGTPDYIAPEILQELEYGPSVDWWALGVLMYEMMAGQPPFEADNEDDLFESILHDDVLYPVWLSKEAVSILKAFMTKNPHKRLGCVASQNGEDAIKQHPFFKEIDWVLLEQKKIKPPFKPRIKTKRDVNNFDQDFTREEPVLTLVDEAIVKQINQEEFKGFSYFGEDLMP
method: FRET based LANCE Ultra kinase assay
Type: biochemical
condition.label: read-out: IC50
property: IC50 (nM)
Numbers only, in nM.

Reference set, count: 8
[ask] Return reported IC50. Input compound: NC(C(=O)NC1COc2ccccc21)[C@H]1CC[C@H](C(=O)Nc2ccncc2)CC1 (stereo partly drawn)
[reply] 2020

[ask] Item NC(C(=O)NCc1ccc(F)cc1)[C@H]1CC[C@H](C(=O)Nc2ccncc2)CC1 (stereo partly drawn) : provide IC50
[reply] 2370

[ask] Input NC(CNC(=O)C1(c2ccc(Cl)cc2)CC1)[C@H]1CC[C@H](C(=O)Nc2ccncc2)CC1 (relative stereo) , output reported IC50.
[reply] 56.6

[ask] Quickly give me recorded IC50 for NC(CNC(=O)C1(c2ccc(F)cc2)CC1)[C@H]1CC[C@H](C(=O)Nc2ccncc2)CC1 (stereo partly drawn)
[reply] 146

[ask] Answer with reported IC50 of NC(CNC(=O)C1(c2ccc(F)cc2Cl)CCCC1)[C@H]1CC[C@H](C(=O)Nc2ccncc2)CC1 (stereo partly drawn)
[reply] 121

[ask] Could you please provide reported IC50 for CC(C)(C(=O)NCC(N)[C@H]1CC[C@H](C(=O)Nc2ccncc2)CC1)c1ccc(Cl)cc1 (stereo partly drawn) ? Thanks!
[reply] 40

[ask] Tell us which IC50 value is on record for NC(C(=O)N[C@@H]1CCCc2ccccc21)[C@H]1CC[C@H](C(=O)Nc2ccncc2)CC1 (stereo partly drawn)
[reply] 3090

[ask] Note down IC50 recorded for CC(C)(C(=O)NCC(N)[C@H]1CC[C@H](C(=O)Nc2ccncc2)CC1)c1cccs1 (stereo partly drawn)
[reply] 280

Shift focus to the following entry.
[ask] Could you please provide reported IC50 for NC(CNC(=O)C1CCc2cc(Cl)ccc21)[C@H]1CC[C@H](C(=O)Nc2ccncc2)CC1 (stereo partly drawn) ? Thanks!
[reply] 359

Recorded values, source patent EP3180003B1.
